target: Nuclear factor NF-kappa-B complex (Homo sapiens) (UniProt Q00653+P19838+Q04206); assay: Concentration required for complete inhibition of Nuclear factor kappa B DNA binding; type: protein-complex assay
Sequence (P19838 whole entry, looked up): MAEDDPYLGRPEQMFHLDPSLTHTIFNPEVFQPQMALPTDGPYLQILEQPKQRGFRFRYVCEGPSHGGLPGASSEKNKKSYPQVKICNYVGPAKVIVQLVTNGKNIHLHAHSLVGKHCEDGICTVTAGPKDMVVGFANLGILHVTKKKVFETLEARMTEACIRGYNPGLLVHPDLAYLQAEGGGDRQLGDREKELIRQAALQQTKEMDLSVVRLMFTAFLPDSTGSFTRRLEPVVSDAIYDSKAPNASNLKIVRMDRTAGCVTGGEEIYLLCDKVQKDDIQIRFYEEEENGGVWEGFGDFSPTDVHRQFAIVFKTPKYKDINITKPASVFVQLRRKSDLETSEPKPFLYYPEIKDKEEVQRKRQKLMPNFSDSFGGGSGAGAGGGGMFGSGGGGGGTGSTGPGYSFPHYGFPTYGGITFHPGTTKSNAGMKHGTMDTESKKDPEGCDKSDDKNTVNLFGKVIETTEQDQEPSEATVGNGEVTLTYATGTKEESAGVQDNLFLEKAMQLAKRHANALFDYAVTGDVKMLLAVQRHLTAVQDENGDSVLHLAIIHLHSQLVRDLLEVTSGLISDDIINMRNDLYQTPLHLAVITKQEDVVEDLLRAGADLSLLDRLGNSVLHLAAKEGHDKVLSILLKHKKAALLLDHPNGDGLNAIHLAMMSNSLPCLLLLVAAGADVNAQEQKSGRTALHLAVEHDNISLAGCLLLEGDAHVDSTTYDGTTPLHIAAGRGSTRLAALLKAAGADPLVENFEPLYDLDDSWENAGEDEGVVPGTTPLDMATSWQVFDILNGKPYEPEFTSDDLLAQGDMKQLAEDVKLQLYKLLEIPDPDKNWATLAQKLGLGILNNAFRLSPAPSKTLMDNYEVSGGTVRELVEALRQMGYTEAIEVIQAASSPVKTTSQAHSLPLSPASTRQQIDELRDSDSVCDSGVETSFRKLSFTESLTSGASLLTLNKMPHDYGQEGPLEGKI
Sequence (Q00653 whole entry, looked up): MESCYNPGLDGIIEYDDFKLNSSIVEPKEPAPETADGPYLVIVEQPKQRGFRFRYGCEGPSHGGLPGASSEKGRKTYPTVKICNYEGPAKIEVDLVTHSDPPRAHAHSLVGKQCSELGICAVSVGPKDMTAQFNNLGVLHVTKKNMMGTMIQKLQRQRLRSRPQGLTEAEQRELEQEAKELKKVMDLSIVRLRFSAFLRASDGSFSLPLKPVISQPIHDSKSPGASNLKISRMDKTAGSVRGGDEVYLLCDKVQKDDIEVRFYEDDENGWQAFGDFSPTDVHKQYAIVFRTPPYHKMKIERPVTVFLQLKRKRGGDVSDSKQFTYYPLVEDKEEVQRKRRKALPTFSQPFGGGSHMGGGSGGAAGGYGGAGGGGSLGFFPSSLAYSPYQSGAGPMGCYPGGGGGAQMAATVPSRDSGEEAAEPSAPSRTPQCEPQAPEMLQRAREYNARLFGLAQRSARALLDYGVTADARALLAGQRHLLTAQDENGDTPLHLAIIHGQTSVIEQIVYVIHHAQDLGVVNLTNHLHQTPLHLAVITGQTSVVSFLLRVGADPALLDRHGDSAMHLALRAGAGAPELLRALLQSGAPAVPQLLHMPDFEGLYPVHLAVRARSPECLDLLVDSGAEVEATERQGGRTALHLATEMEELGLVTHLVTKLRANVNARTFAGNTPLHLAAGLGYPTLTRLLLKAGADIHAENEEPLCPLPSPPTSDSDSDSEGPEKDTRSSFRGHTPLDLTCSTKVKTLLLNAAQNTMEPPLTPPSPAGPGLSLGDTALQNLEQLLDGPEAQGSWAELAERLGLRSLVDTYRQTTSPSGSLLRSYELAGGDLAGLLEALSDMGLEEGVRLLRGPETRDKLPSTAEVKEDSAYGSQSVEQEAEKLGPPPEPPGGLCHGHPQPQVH
Sequence (Q04206 whole entry, looked up): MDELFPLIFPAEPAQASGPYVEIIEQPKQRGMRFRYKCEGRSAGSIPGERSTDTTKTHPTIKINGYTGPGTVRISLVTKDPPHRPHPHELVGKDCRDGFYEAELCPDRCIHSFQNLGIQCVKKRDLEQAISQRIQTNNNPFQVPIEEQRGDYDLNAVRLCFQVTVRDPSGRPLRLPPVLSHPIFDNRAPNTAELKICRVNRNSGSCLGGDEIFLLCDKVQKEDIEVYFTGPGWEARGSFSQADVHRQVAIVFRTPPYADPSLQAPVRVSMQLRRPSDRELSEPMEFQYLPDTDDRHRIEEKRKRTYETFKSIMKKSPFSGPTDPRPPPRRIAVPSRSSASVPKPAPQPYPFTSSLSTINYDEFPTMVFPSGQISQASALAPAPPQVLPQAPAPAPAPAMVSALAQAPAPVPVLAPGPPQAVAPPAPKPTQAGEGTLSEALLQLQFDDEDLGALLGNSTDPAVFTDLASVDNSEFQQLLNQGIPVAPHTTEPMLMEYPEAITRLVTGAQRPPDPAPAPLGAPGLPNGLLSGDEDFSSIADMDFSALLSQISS
As shown below, each of these compounds has a reported log10(IC100) value.
Endpoint: log10(IC100) (log10 of the value in µM)

{"columns": ["Compound", "log10(IC100)"],
 "data": [
  ["C=C1[C@@H]2[C@H]3OC(=O)C(=C)[C@@H]3CCC(=C)[C@@H]2C[C@@H]1OC(=O)C=C(C)C", 2.30],
  ["C=C1C(=O)O[C@H]2C3=C(C(=O)C[C@@H]3C)[C@@H](C)CC[C@@H]12", 1.30],
  ["C=C1C(=O)O[C@@H]2[C@H]3C(C)=CC[C@@H](O)[C@]3(C)CC[C@@H]12", 2.00],
  ["C=C1C(=O)O[C@@H]2[C@H]3C(C)=CC[C@H]3[C@](C)(O)C[C@H](O)[C@@H]12", 2.00],
  ["C=C(C)C(=O)O[C@@H]1/C=C(/C=O)CCC[C@@]2(CO2)[C@H](O)[C@H]2OC(=O)C(=C)[C@@H]21", 0.70],
  ["C=C1C(=O)O[C@H]2C/C(CO)=C\\CC/C(COC(=O)C(C)C(C)O)=C\\C[C@H]12 (stereo partly drawn)", 1.70],
  ["CC[C@@H](C)[C@@]1(O)O[C@H]2C[C@@]3(C)OC(=CC3=O)/C(COC(C)=O)=C\\[C@H]3OC(=O)[C@@]1(C)C23 (stereo partly drawn)", 0.70],
  ["C=C1C(=O)O[C@@H]2/C=C(/COC(=O)CC(C)C)CC/C=C(/CO)C(=O)C[C@@H]12 (stereo in doubt; 5)", 1.10]
]}

----------
molecular target: Nuclear factor NF-kappa-B complex (Homo sapiens) (UniProt Q00653+P19838+Q04206); assay: Concentration required for complete inhibition of Nuclear factor kappa B DNA binding; type: protein-complex assay; parameters: unit not given here
Please mark Satisfied if the recorded pIC100 is equal to or greater than -1, and Not satisfied if it falls below.

{"columns": ["Compound", "Target Of Assay", "Class Label"],
 "data": [
  ["C=C1C(=O)O[C@H]2[C@H]1CCC(C)=C1C(=O)[C@H]3O[C@@]3(C)[C@@H]12", "Nuclear factor NF-kappa-B complex (Homo sapiens) (UniProt Q00653+P19838+Q04206)", "Satisfied"],
  ["C=C1C(=O)O[C@H]2/C=C(\\C)[C@@H](O)CC/C(C)=C/C[C@H]12", "Nuclear factor NF-kappa-B complex (Homo sapiens) (UniProt Q00653+P19838+Q04206)", "Not satisfied"],
  ["C=C1C(=O)O[C@H]2C/C(CO)=C\\CC/C(COC(=O)C(C)CO)=C\\C[C@H]12 (stereo partly drawn)", "Nuclear factor NF-kappa-B complex (Homo sapiens) (UniProt Q00653+P19838+Q04206)", "Not satisfied"],
  ["CC[C@@H](C)[C@@]1(O)O[C@H]2C[C@@]3(C)OC(=CC3=O)/C(COC(C)=O)=C\\[C@H]3OC(=O)[C@@]1(C)C23 (stereo partly drawn)", "Nuclear factor NF-kappa-B complex (Homo sapiens) (UniProt Q00653+P19838+Q04206)", "Satisfied"],
  ["C=C1C(=O)O[C@H]2C[C@H](C)C3=C(C[C@H]12)[C@@H](C)CC3=O", "Nuclear factor NF-kappa-B complex (Homo sapiens) (UniProt Q00653+P19838+Q04206)", "Not satisfied"],
  ["C=C1C(=O)O[C@H]2C/C(CO)=C\\CC/C(COC(=O)C(C)(C)O)=C\\C[C@H]12", "Nuclear factor NF-kappa-B complex (Homo sapiens) (UniProt Q00653+P19838+Q04206)", "Not satisfied"],
  ["C=C(C)C(=O)OC/C1=C/C[C@@H]2C(=C)C(=O)O[C@H]2C/C(CO)=C\\CC1", "Nuclear factor NF-kappa-B complex (Homo sapiens) (UniProt Q00653+P19838+Q04206)", "Not satisfied"],
  ["C=C1C(=O)O[C@@H]2[C@H]3C(CO)=CC(=O)C3=C(C)CC[C@@H]12", "Nuclear factor NF-kappa-B complex (Homo sapiens) (UniProt Q00653+P19838+Q04206)", "Not satisfied"],
  ["C=C1C(=O)O[C@H]2C[C@H](C)C3=CC(=O)[C@H](C)C3C[C@H]12 (stereo partly drawn)", "Nuclear factor NF-kappa-B complex (Homo sapiens) (UniProt Q00653+P19838+Q04206)", "Not satisfied"],
  ["C=C1C(=O)O[C@@H]2/C=C(/C)C3=CC(=O)[C@@](C)(C[C@@H](OC(=O)/C(C)=C\\C)[C@@H]12)O3", "Nuclear factor NF-kappa-B complex (Homo sapiens) (UniProt Q00653+P19838+Q04206)", "Satisfied"],
  ["C=C1C(=O)O[C@@H]2C[C@H](C)C3=CC(=O)[C@H](C)[C@@H]3C[C@H]12", "Nuclear factor NF-kappa-B complex (Homo sapiens) (UniProt Q00653+P19838+Q04206)", "Not satisfied"],
  ["C=C1C(=O)O[C@H]2[C@H]1[C@H](OC(=O)C(C)C)[C@@H](OC(C)=O)/C(C=O)=C\\CCC1(CO1)[C@@H]2O (stereo partly drawn)", "Nuclear factor NF-kappa-B complex (Homo sapiens) (UniProt Q00653+P19838+Q04206)", "Satisfied"],
  ["C=C(C)C(=O)O[C@@H]1C[C@@](C)(O)[C@@H]2C(=O)C=C(C)[C@@H]2[C@H]2OC(=O)C(=C)[C@@H]21", "Nuclear factor NF-kappa-B complex (Homo sapiens) (UniProt Q00653+P19838+Q04206)", "Not satisfied"],
  ["C=C(CO)C(=O)OC/C1=C/C[C@@H]2C(=C)C(=O)O[C@H]2C/C(COC(C)=O)=C\\CC1", "Nuclear factor NF-kappa-B complex (Homo sapiens) (UniProt Q00653+P19838+Q04206)", "Not satisfied"],
  ["C=C1C(=O)O[C@@H]2/C=C(/COC(=O)CC(C)C)C[C@H](OC(C)=O)/C=C(/CO)C(=O)C[C@@H]12", "Nuclear factor NF-kappa-B complex (Homo sapiens) (UniProt Q00653+P19838+Q04206)", "Not satisfied"],
  ["C=C1C(=O)O[C@@H]2C[C@H](C)C3=C(C[C@H]12)[C@@H](C)CC3=O", "Nuclear factor NF-kappa-B complex (Homo sapiens) (UniProt Q00653+P19838+Q04206)", "Not satisfied"],
  ["C=C1[C@@H]2[C@H]3OC(=O)C(=C)[C@@H]3CCC(=C)[C@@H]2C[C@@H]1OC(=O)C=C(C)C", "Nuclear factor NF-kappa-B complex (Homo sapiens) (UniProt Q00653+P19838+Q04206)", "Not satisfied"],
  ["C=C1C(=O)O[C@@H]2C3=C(C(=O)C[C@@H]3C)[C@@H](C)CC[C@@H]12", "Nuclear factor NF-kappa-B complex (Homo sapiens) (UniProt Q00653+P19838+Q04206)", "Not satisfied"],
  ["C=C1C(=O)O[C@@H]2[C@H]3C(C)=CC[C@H]3[C@](C)(O)C[C@H](O)[C@@H]12", "Nuclear factor NF-kappa-B complex (Homo sapiens) (UniProt Q00653+P19838+Q04206)", "Not satisfied"],
  ["C=C1C(=O)O[C@@H]2/C=C(/C)[C@H](OC(C)=O)C/C=C(/C)CC[C@@H]12", "Nuclear factor NF-kappa-B complex (Homo sapiens) (UniProt Q00653+P19838+Q04206)", "Not satisfied"],
  ["C=C1C(=O)O[C@@H]2/C=C(/COC(=O)C(C)C)CC/C=C(/CO)[C@H](O)C[C@@H]12", "Nuclear factor NF-kappa-B complex (Homo sapiens) (UniProt Q00653+P19838+Q04206)", "Not satisfied"]
]}
